# TARGET_UNDER_TEST: Mitogen-activated protein kinase 1 (Homo sapiens) (UniProt P28482)
# Sequence (P28482 whole entry): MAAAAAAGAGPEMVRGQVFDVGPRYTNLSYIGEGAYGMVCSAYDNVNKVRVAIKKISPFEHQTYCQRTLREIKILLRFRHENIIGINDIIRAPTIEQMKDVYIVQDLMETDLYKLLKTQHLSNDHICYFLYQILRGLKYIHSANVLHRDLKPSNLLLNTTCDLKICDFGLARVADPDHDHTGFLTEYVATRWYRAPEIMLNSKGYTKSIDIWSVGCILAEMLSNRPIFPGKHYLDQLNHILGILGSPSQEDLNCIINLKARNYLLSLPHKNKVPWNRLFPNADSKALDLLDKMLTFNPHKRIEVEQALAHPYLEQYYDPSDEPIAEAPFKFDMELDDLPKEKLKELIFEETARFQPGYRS
# MEASUREMENT_PARAMETERS: Compound concentration 20.0 uM, Protein concentration 2.0 uM, Result type QC Liability
# Description: Thermal Shift Assay. Domain: start/stop: M1-S360
Grouping rule (ΔTm): band A (below -0.07 °C), band B (-0.07 °C to below 0.2 °C), band C (0.2 °C or more)

COMPOUND	CLASS_LABEL
COc1cc2nc(-c3cc(F)ccc3O)nc(N[C@@H]3CNC[C@H]3C(C)(C)O)c2cc1OC	band C
CC(C)(C)c1cnc(CSc2cnc(NC(=O)C3CCN(CC(=O)NCCOCCOCCOCCNc4cccc5c4C(=O)N(C4CCC(=O)NC4=O)C5=O)CC3)s2)o1 (centres undefined)	band C
Cc1nn(C)c(COc2ccc(N3CCN(S(=O)(=O)N(C)C)CC3)cc2)c1-c1cccc2c(CCCOc3cccc4ccccc34)c(C(=O)O)n(CCN3CCOCC3)c12	band A
O=C(Nc1ccc(-n2nc(-c3cccnc3)cc2C(F)(F)F)cn1)c1ccc(-c2ccccc2)c(F)c1	band B
O=C(O)c1ccc(OCCCc2ccc(OCCCCOC3CCCCC3)cc2)c(C(=O)NC2CCCC(C(=O)O)C2)c1 (centres undefined)	band A

Q: Could you tell me which band O=C(CCSCc1ccco1)NNC(=O)N1Cc2ccccc2Oc2ccc(Cl)cc21 belongs to?
A: band B

Q: Moving on to the next compound: CCOC(=O)c1ccc(CN(Cc2ccc(-c3cccc(S(C)(=O)=O)c3)cc2)S(=O)(=O)c2c(C)cc(C)cc2C)o1
A: band A

Q: Moving on to the next compound: Cn1nccc1-c1ccc(Sc2cccc(C3(C(N)=O)CCOCC3)c2)cc1
A: band C

Q: Moving on to the next compound: CN(C)[C@H]1CC[C@H](Nc2ncc3ncnc(Nc4ccc(F)c(Cl)c4)c3n2)CC1
A: band C

Q: Moving on to the next compound: CCCN1CCC(C#N)(NC(=O)[C@H](CC(C)(C)C)NC(=O)N2CCOCC2)CC1
A: band A

Q: Moving on to the next compound: O=C(O)/C=C/c1ccc(Cn2ccnc2)cc1
A: band C

Q: Moving on to the next compound: CCOC(=O)/N=C(\N)c1ccc(OCc2cccc(COc3ccc(C(C)(C)c4ccc(OC(=O)OCC)cc4)cc3)c2)cc1
A: band A

Q: Moving on to the next compound: O=C(Nc1snnc1C(=O)Nc1ccc(N2CCCC2)cc1)c1cncc(C(F)(F)F)c1
A: band B

Q: Moving on to the next compound: Nc1ncnc2c1ccn2[C@@H]1O[C@H]([C@@H](O)c2ccccc2)[C@@H](O)[C@H]1O
A: band C

Q: Moving on to the next compound: O=C(NCc1ccc(F)cc1)C1CCN(S(=O)(=O)c2cc(Cl)cc(Cl)c2)CC1
A: band B

Q: Moving on to the next compound: N[C@@H]1CCCC[C@H]1Oc1ccc2ncc(-c3cc4ccccc4o3)n2n1
A: band B

Q: Moving on to the next compound: COCCN(C)c1ccc(NC(=O)/C=C(\C)c2ccc3ccccc3c2)c(C(=O)O)c1
A: band A

====

# TARGET_UNDER_TEST: Casein kinase I isoform delta (Homo sapiens) (UniProt P48730)
# Sequence (P48730 whole entry, looked up, canonical isoform): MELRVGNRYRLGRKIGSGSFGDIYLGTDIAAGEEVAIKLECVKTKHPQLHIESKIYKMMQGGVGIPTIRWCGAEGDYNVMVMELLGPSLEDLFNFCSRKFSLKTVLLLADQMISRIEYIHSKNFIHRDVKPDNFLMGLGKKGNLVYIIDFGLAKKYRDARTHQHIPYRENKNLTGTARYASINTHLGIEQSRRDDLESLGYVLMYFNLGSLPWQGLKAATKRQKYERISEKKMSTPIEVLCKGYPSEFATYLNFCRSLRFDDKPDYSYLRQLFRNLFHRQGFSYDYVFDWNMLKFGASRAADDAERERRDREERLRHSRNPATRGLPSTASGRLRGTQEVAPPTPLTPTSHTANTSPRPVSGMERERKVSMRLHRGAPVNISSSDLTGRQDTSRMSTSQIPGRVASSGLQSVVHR
# MEASUREMENT_PARAMETERS: Compound concentration 20.0 uM, Protein concentration 2.0 uM, Result type QC Liability
# Description: Thermal Shift Assay. Domain: start/stop: M1-K294
Catalogue of ΔTm values
I only need the number, in °C, no unit after it.

Some compounds with known ΔTm results, for comparison:
MOL_SMILES	UNIT_LABEL	MEASUREMENT
Cc1cnc(-c2cnc(NCCNc3ccc(C#N)cn3)nc2-c2ccc(Cl)cc2Cl)[nH]1	°C	1.3
CC(C)(C)OC(=O)CN(Cc1ccc(Cl)cc1)Cc1ccc([N+](=O)[O-])s1	°C	0.3
Nc1nccc(-c2c(-c3ccc(F)cc3)ncn2C2CCN(Cc3ccon3)CC2)n1	°C	10.1
Fc1ccc(Cl)cc1-c1nc(Nc2ccncc2)c2nccnc2n1	°C	2.24
CC(C)N1CCN(Cc2cnc(-c3cc(-c4cccc5[nH]ccc45)cc4[nH]ncc34)o2)CC1	°C	1.32

Q: Reported ΔTm for CNS(=O)(=O)c1ccc(N(C)C)c(Nc2ncnc3cc(OC)c(OC)cc23)c1 : what is it?
A: 0.23

Q: Moving on to the next compound: CNC(=O)c1cc(C(=O)N[C@H]2[C@@H]3COC[C@@H]32)cc2c1O[C@H](CF)[C@H]2c1ccccc1
A: 0.02

Q: Moving on to the next compound: O=C(CCSCc1ccco1)NNC(=O)N1Cc2ccccc2Oc2ccc(Cl)cc21
A: -8.4

Q: Moving on to the next compound: O=C(O)c1cc(F)c2nc(N3[C@@H]4CC[C@H]3C[C@@H](OCc3c(-c5ccccc5OC(F)(F)F)noc3C3CC3)C4)sc2c1
A: 0.11

====

# TARGET_UNDER_TEST: Cyclin-dependent kinase 2 (Homo sapiens) (UniProt P24941)
# MEASUREMENT_PARAMETERS: Compound concentration 20.0 uM, Protein concentration 2.0 uM, Result type QC Liability
# Description: Thermal Shift Assay. Domain: start/stop: M1-L298
QUANTITY: ΔTm (°C)
I only need the number, in °C, no unit after it.

MOL_SMILES	UNIT_LABEL	ΔTm
Cc1cc2c(cc(C(=O)N[C@H](CO)c3ccc(S(=O)(=O)CC(=O)O)cc3)n2C)c(Cl)c1Cl	°C	-0.15

Q: Reported ΔTm for Cc1cn(CCN2CCN(c3ccccc3-c3cc(C#N)cc(C(=O)NCCCN4CCCC4)c3)CC2)c2ccccc12 : what is it?
A: 0.91

Q: Moving on to the next compound: C[C@@H]1CC(=O)N(C2CC2)N=C1c1ccc(NC(=O)N2Cc3ccncc3C2)cc1
A: 0.35

Q: Moving on to the next compound: CC1CCN(C(=O)[C@H](CCn2cccc2C#N)NS(=O)(=O)c2cccc3[nH]ccc23)CC1
A: 0.31

====

# TARGET_UNDER_TEST: Tyrosine-protein kinase ABL1 (Homo sapiens) (UniProt P00519)
# Sequence (P00519 whole entry): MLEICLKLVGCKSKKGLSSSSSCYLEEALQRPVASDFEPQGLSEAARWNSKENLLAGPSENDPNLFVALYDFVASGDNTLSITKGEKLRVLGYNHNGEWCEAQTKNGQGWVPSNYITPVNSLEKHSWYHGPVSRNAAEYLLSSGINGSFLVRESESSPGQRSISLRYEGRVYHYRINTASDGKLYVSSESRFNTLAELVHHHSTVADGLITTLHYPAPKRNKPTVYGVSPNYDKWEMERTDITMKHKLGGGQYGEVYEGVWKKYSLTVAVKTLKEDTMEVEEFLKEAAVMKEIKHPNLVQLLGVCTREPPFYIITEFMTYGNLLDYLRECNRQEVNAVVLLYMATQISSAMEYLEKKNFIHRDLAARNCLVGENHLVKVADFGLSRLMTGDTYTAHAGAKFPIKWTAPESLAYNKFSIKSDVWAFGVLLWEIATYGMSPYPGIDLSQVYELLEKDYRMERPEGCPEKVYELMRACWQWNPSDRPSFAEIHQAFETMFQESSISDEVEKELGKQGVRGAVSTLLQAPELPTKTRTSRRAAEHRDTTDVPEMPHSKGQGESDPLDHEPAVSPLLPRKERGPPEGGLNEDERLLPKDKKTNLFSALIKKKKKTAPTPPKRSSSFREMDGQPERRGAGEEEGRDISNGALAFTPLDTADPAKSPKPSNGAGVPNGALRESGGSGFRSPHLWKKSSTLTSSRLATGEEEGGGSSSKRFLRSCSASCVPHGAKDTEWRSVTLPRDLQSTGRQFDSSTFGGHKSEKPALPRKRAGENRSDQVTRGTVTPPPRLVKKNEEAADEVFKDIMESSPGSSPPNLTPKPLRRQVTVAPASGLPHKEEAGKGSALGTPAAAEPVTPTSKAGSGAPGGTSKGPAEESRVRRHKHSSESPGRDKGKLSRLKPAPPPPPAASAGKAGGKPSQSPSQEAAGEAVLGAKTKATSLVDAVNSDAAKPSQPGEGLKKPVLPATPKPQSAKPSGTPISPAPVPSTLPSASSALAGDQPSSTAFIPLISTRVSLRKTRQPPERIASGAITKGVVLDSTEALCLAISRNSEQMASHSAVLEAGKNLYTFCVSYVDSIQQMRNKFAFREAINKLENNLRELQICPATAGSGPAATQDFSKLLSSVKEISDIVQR
# MEASUREMENT_PARAMETERS: Compound concentration 20.0 uM, Protein concentration 2.0 uM, Result type QC Liability
# Description: Thermal Shift Assay. Domain: start/stop: S229-K512
QUANTITY: ΔTm (°C)
I only need the number, in °C, no unit after it.

Some compounds with known ΔTm results, for comparison:
COMPOUND	QUANTITY	MEASUREMENT
CCC(C(=O)Nc1ccc(-c2cc3ccccc3s2)c(C(N)=O)c1)c1nccs1 (stereo not given)	ΔTm	0.88
CCCCC(C)(O)C/C=C/[C@H]1[C@H](O)CC(=O)[C@@H]1CCCCCCC(=O)O (stereo not given in full)	ΔTm	0.39
Cn1cc(-c2ccc(-c3cncc(Cl)c3N3CCC4(CCNC4=O)CC3)cc2)cn1	ΔTm	-0.07
CP(C)(=O)c1ccc(CNC(=O)C2CCN(S(=O)(=O)c3cc(Cl)cc(Cl)c3)CC2)cc1	ΔTm	0.74
CC(C)(C)c1cnc(CSc2cnc(NC(=O)C3CCNCC3)s2)o1	ΔTm	0.04

Q: Which measured ΔTm belongs to CN1C(=O)c2ccccc2N(C)c2nc(Nc3cnn(C4CCNCC4)c3)ncc21 , tested on Tyrosine-protein kinase ABL1 (Homo sapiens) (UniProt P00519)?
A: 9.76

Q: Moving on to the next compound: N[C@@H]1CCCN(c2c(/C=C3\SC(=O)NC3=O)cccc2-c2ccccc2)C1
A: -0.18

====

# TARGET_UNDER_TEST: Cyclin-dependent kinase 2 (Homo sapiens) (UniProt P24941)
# MEASUREMENT_PARAMETERS: Compound concentration 20.0 uM, Protein concentration 2.0 uM, Result type QC Liability
Catalogue of ΔTm values
I only need the number, in °C, no unit after it.

Some compounds with known ΔTm results, for comparison:
COMPOUND	MEASUREMENT
c1ccc(C(OC2CCN(CCCc3nnn[nH]3)CC2)c2ccccc2)cc1	0.54
Cc1cc(Cn2c(N3CC4(CNC4)C3)nc3cc(Cl)cc(N4CCN(C)CC4)c32)cc(C)c1F	0.2
NCC1CCC(CNc2nc(NCc3ccccc3OC(F)(F)F)ncc2[N+](=O)[O-])CC1 (centres undefined)	-0.56
COc1ccc(-c2c(-c3ccccc3)oc3ncnc(O[C@H](C)CCCCC(=O)O)c23)cc1	-2.59
COc1ccc(-c2csc(NC(=O)[C@H]3CCCCN3S(=O)(=O)c3ccc(C)cc3)n2)cc1	0.77

Q: Reported ΔTm for C#Cc1cnc2[nH]cc(-c3cccc4c3CCN4C(=O)[C@@H]3CCCN3C#N)c2c1 : what is it?
A: 1.31

Q: Moving on to the next compound: CNC(=O)c1cccc(-c2ccc3c(N4CCOC[C@@H]4C)nc(N4CCOC[C@@H]4C)nc3n2)c1
A: 0.33

Q: Moving on to the next compound: CC[C@@H](C(=O)OC)n1c(=O)c2ccccc2n(Cc2cn(C)c3cccc(C)c23)c1=O
A: 0.06

Q: Moving on to the next compound: CN(C)[C@H]1CCc2nc(NC(=O)c3cccc(Cn4cc(-c5ccc(C#N)cc5)cn4)c3)sc2C1
A: 0.68
